pIC50: −log10 of the molar value.
Form: system (Acetylcholinesterase (Homo sapiens, UniProt P22303)), quantity (pIC50), values below.

[
  {
    "molecule smiles": "O=C1c2c(sc3c2CCCC3)NC2=NCCN12",
    "system under test": "Acetylcholinesterase (Homo sapiens, UniProt P22303)",
    "comparator": "<",
    "pIC50": 3.70
  },
  {
    "molecule smiles": "C1=Nc2sc3c(c2C2=NCCN12)CCCC3",
    "system under test": "Acetylcholinesterase (Homo sapiens, UniProt P22303)",
    "comparator": "=",
    "pIC50": 4.25
  },
  {
    "molecule smiles": "C1=Nc2sc3c(c2C2=NCCCN12)CCN(Cc1ccccc1)C3",
    "system under test": "Acetylcholinesterase (Homo sapiens, UniProt P22303)",
    "comparator": "=",
    "pIC50": 4.20
  },
  {
    "molecule smiles": "O=C1c2c(sc3c2CCN(Cc2ccccc2)C3)NC2=NCCCN12",
    "system under test": "Acetylcholinesterase (Homo sapiens, UniProt P22303)",
    "comparator": "=",
    "pIC50": 5.24
  },
  {
    "molecule smiles": "O=C1c2c(sc3c2CCN(Cc2ccccc2)C3)NC2=NCCN12",
    "system under test": "Acetylcholinesterase (Homo sapiens, UniProt P22303)",
    "comparator": "=",
    "pIC50": 4.85
  },
  {
    "molecule smiles": "C1=Nc2sc3c(c2C2=NCCN12)CCN(Cc1ccccc1)C3",
    "system under test": "Acetylcholinesterase (Homo sapiens, UniProt P22303)",
    "comparator": "=",
    "pIC50": 4.66
  },
  {
    "molecule smiles": "O=C1c2c(sc3c2CCCC3)NC2=NCCCN12",
    "system under test": "Acetylcholinesterase (Homo sapiens, UniProt P22303)",
    "comparator": "<",
    "pIC50": 3.70
  },
  {
    "molecule smiles": "C1=Nc2sc3c(c2C2=NCCCN12)CCCC3",
    "system under test": "Acetylcholinesterase (Homo sapiens, UniProt P22303)",
    "comparator": "=",
    "pIC50": 4.69
  }
]

meta.source: BindingDB's records for doi:10.3109/14756366.2010.504674
